Please respond with reported IC50 for every item in the list.
- Test system: Human betaherpesvirus 5
- Method: Inhibitory concentration against human cytomegalovirus (CMV) in cultured human foreskin fibroblast (HFF) cells
- Assay type: functional, organism-based
- Conditions: Human betaherpesvirus 5, HFF

Request the reported IC50 associated with "COc1cc(OC)c(N/C(S)=N/c2ccc(NC(=O)c3ccco3)cc2)cc1Cl"
0.2 µg/mL

Next: "COc1cc(OC)c(N/C(S)=N/c2ccc(NC(=O)c3ccco3)cc2C)cc1Cl"
0.6 µg/mL

Next: "O=C(Nc1ccc(/N=C(\S)Nc2ccc(Cl)c(C(F)(F)F)c2)cc1)c1ccco1"
0.03 µg/mL

Next: "O=C(Nc1ccc(/N=C(\S)Nc2ccc(C(F)(F)F)c(Cl)c2)cc1)c1ccccn1"
> 10 µg/mL

Next: "Cc1cccc(N/C(S)=N/c2ccc(NC(=O)c3ccco3)cc2)c1"
0.06 µg/mL

All values here come from ChEMBL document CHEMBL1136189.
